This collection of values is drawn from the NIST ThermoML archive (doi:10.1016/j.fluid.2018.07.028).

Experiment: activity coefficient (dimensionless); of the first substance listed, at infinite dilution; xn = mol fraction of the nth substance listed
Applied Conditions: 358.15 K; 101.33 kPa; Liquid; Chromatography; x1 = 0
Classification field: enter t for activity coefficient values not below 2, f for values below it.

molecule="CCC[N+](=O)[O-] [1-nitropropane] + CCCC[P+](CCCC)(CCCC)CCCC.O=S(=O)([N-]S(=O)(=O)C(F)(F)F)C(F)(F)F" answer_label=f
molecule="CCCO [propan-1-ol] + CCCC[P+](CCCC)(CCCC)CCCC.O=S(=O)([N-]S(=O)(=O)C(F)(F)F)C(F)(F)F" answer_label=f
molecule="CCCC(C)=O [pentan-2-one] + CCCC[P+](CCCC)(CCCC)CCCC.O=S(=O)([N-]S(=O)(=O)C(F)(F)F)C(F)(F)F" answer_label=f
molecule="C=C(C)c1ccccc1 [(1-methylethenyl)benzene] + CCCC[P+](CCCC)(CCCC)CCCC.O=S(=O)([N-]S(=O)(=O)C(F)(F)F)C(F)(F)F" answer_label=f
molecule="CC1CCCCC1 [methylcyclohexane] + CCCC[P+](CCCC)(CCCC)CCCC.O=S(=O)([N-]S(=O)(=O)C(F)(F)F)C(F)(F)F" answer_label=t
molecule="CC(C)=O [acetone] + CCCC[P+](CCCC)(CCCC)CCCC.O=S(=O)([N-]S(=O)(=O)C(F)(F)F)C(F)(F)F" answer_label=f
molecule="C1CCCC1 [cyclopentane] + CCCC[P+](CCCC)(CCCC)CCCC.O=S(=O)([N-]S(=O)(=O)C(F)(F)F)C(F)(F)F" answer_label=t
molecule="C=CCCC [1-pentene] + CCCC[P+](CCCC)(CCCC)CCCC.O=S(=O)([N-]S(=O)(=O)C(F)(F)F)C(F)(F)F" answer_label=t
molecule="C=CCCCCC [1-heptene] + CCCC[P+](CCCC)(CCCC)CCCC.O=S(=O)([N-]S(=O)(=O)C(F)(F)F)C(F)(F)F" answer_label=t
molecule="C1CCOC1 [tetrahydrofuran] + CCCC[P+](CCCC)(CCCC)CCCC.O=S(=O)([N-]S(=O)(=O)C(F)(F)F)C(F)(F)F" answer_label=f
molecule="CCc1ccccc1 [ethylbenzene] + CCCC[P+](CCCC)(CCCC)CCCC.O=S(=O)([N-]S(=O)(=O)C(F)(F)F)C(F)(F)F" answer_label=f
molecule="CCCCO [butan-1-ol] + CCCC[P+](CCCC)(CCCC)CCCC.O=S(=O)([N-]S(=O)(=O)C(F)(F)F)C(F)(F)F" answer_label=f
molecule="CCCc1ccccc1 [propylbenzene] + CCCC[P+](CCCC)(CCCC)CCCC.O=S(=O)([N-]S(=O)(=O)C(F)(F)F)C(F)(F)F" answer_label=f
molecule="CCCC=O [butanal] + CCCC[P+](CCCC)(CCCC)CCCC.O=S(=O)([N-]S(=O)(=O)C(F)(F)F)C(F)(F)F" answer_label=f
molecule="CCC(=O)OC [methyl propanoate] + CCCC[P+](CCCC)(CCCC)CCCC.O=S(=O)([N-]S(=O)(=O)C(F)(F)F)C(F)(F)F" answer_label=f
molecule="C=CCCCC [hex-1-ene] + CCCC[P+](CCCC)(CCCC)CCCC.O=S(=O)([N-]S(=O)(=O)C(F)(F)F)C(F)(F)F" answer_label=t
